Assay: physchem
Conditions: N-methypyrrolidone, organic solvent or mixture
readoutLabel: solubility (mg/mL)
Write the answer as a number in mg/mL, unit excluded.

Entry under test: Cc1c(-c2cnccn2)ssc1=S [oltipraz] . Its solubility was 13.7

* * *

Experiment: physchem
Conditions: Labrasol, organic solvent or mixture
readoutLabel: solubility (mg/mL)
Write the answer as a number in mg/mL, unit excluded.

Entry under test: `Cc1c(-c2cnccn2)ssc1=S` . Its solubility was 12.6

* * *

Assay: physchem
Conditions: Polypropylene glycol, organic solvent or mixture
readoutLabel: solubility (µg/mL)
Write the answer as a number in µg/mL, unit excluded.

Entry under test: `Cc1c(-c2cnccn2)ssc1=S` . Its solubility was 570
